These measurements were taken from the Kinase Knowledgebase extract (Sharma et al. 2016).

Molecular target: MAPK14 (human) (UniProt Q16539)
Sequence (Q16539 whole entry, looked up): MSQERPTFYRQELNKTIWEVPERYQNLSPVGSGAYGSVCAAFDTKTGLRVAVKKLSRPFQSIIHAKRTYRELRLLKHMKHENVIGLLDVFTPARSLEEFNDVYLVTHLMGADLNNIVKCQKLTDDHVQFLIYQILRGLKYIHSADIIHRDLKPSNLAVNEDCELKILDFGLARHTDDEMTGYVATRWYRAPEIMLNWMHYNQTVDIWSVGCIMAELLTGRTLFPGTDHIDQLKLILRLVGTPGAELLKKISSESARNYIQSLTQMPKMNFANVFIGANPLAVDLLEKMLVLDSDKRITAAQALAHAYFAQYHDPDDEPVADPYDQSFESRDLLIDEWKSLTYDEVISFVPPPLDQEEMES
Test: Inhibition of MAPK14 Kinase Activity by PHAS-I Assay
Conditions: concentration not given here
quantity_name: inhibition (%)
Give the quantity in %, number only.

CC[C@H](C)NC(=O)Cn1nc(-c2ccc(F)cc2)c(-c2ccncc2)c1C :: 76

Problem: Lab note: record inhibition of O=C(NCCCc1[nH]nc(-c2ccc(F)cc2)c1-c1ccncc1)[C@@H]1CCCN1 tested on MAPK14 (human) (UniProt Q16539).
Solution: 85

Problem: Lab note: record inhibition of CCN(CC)C(=O)NCCc1[nH]nc(-c2ccc(F)cc2)c1-c1ccncc1 tested on MAPK14 (human) (UniProt Q16539).
Solution: 67

Problem: Lab note: record inhibition of O=C(Cc1cccs1)NCCCc1[nH]nc(-c2ccc(F)cc2)c1-c1ccncc1 tested on MAPK14 (human) (UniProt Q16539).
Solution: 90

Problem: Lab note: record inhibition of O=S(=O)(NCCc1[nH]nc(-c2ccc(F)cc2)c1-c1ccncc1)C(F)(F)F tested on MAPK14 (human) (UniProt Q16539).
Solution: 82

Problem: Lab note: record inhibition of O=C(NCCCc1[nH]nc(-c2ccc(F)cc2)c1-c1ccncc1)Nc1ccccc1F tested on MAPK14 (human) (UniProt Q16539).
Solution: 86

Problem: Lab note: record inhibition of Cc1c(-c2ccncc2)c(-c2ccc(F)cc2)nn1CC(=O)NC1CCCC1 tested on MAPK14 (human) (UniProt Q16539).
Solution: 58

Problem: Lab note: record inhibition of Cc1ccc([C@@H](C)NC(=O)Cn2nc(-c3ccc(F)cc3)c(-c3ccncc3)c2C)cc1 tested on MAPK14 (human) (UniProt Q16539).
Solution: 81

Problem: Lab note: record inhibition of Cc1c(-c2ccncc2)c(-c2ccc(F)cc2)nn1CC(=O)Nc1ccccc1SCCCc1ccccc1 tested on MAPK14 (human) (UniProt Q16539).
Solution: 80

Problem: Lab note: record inhibition of CCOC(=O)C(NC(=O)NCCc1[nH]nc(-c2ccc(F)cc2)c1-c1ccncc1)C(C)C (stereo not given) tested on MAPK14 (human) (UniProt Q16539).
Solution: 79
